target: HIV-1 JR-CSF Env Q337A (HIV-1 isolate JR-CSF) (UniProt P20871); experiment: cell-based or functional assay
Item-by-item account of Fold IC50 increase relative to wild-type

{"columns": ["BINDER", "Fold IC50 increase relative to wild-type, fold"],
 "data": [
  ["PGT-127 (antibody, V domains shown) VH: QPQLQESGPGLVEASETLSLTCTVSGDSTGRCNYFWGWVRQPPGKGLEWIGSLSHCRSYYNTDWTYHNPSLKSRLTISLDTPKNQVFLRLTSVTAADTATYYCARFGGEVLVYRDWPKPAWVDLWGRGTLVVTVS VL: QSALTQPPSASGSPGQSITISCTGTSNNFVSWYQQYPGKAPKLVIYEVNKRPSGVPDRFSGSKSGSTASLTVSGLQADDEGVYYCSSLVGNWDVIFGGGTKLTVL", 0.5],
  ["PGT-123 (antibody, V domains shown) VH: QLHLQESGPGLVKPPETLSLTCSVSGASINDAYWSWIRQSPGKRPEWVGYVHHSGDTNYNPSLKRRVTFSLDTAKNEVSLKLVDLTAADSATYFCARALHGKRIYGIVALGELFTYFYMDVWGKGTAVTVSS VL: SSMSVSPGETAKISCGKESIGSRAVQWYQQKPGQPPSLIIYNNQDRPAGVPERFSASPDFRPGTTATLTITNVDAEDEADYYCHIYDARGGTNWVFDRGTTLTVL", 0.5],
  ["PGT-128 (antibody, V domains shown) VH: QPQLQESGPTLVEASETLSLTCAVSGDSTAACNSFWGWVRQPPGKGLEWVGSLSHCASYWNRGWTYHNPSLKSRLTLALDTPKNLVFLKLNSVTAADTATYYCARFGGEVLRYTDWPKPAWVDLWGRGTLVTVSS VL: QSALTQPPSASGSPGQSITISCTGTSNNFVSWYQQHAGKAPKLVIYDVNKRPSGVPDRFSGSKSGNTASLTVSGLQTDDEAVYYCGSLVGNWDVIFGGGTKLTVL", 0.7],
  ["PGT-130 (antibody, V domains shown) VH: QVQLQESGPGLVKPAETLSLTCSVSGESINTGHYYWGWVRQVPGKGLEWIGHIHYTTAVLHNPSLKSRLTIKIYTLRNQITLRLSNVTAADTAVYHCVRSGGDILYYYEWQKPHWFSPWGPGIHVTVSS VL: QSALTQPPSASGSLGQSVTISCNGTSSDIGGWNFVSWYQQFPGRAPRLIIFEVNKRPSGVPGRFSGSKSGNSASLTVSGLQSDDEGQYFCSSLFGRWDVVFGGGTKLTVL", 1]
]}
